target.or.test.system: recombinant human cGAS (Homo sapiens (Human), UniProt Q8N884)
Sequence (Q8N884 whole entry): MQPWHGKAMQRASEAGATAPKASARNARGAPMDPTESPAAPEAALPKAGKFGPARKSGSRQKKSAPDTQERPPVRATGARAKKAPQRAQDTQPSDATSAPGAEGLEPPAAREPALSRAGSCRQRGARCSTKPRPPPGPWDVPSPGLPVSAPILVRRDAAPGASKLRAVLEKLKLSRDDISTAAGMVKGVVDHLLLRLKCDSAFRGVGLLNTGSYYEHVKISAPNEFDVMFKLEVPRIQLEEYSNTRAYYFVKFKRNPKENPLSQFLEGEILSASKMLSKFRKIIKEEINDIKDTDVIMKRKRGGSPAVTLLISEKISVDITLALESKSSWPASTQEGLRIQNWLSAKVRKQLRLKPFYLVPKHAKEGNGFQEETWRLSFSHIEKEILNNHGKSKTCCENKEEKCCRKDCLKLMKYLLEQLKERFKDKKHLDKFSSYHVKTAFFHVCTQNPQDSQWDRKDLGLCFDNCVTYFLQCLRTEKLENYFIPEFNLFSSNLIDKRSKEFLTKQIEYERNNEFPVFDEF
measurement.description: In vitro inhibition assay of cGAS activity (cGAMP production, RapidFire mass spectrometry)
Type: biochemical
details: 10 nM recombinant human cGAS, 60 nM 75-bp dsDNA, ATP, GTP, room temperature 3 hours, read-out: IC50 (μM), In vitro inhibition assay for Compounds 95-348
Please assign a class to every record based on measured IC50, with ranges lowest: < 0.03 µM; middle: ≥ 0.03 µM and < 0.05 µM; highest: ≥ 0.05 µM

Consider the following illustrative entries.
Asked: Category of COc1cc2c(-c3cn[nH]c3)cn(-c3ccc(CO)nn3)c2cc1Cl :
Given back: lowest

Asked: Try this compound too: CC(=O)NCC(=O)NC1CCn2c1c(-c1cn[nH]c1)c1ccc(Cl)c(Cl)c12 (centres unmarked)
Given back: middle

Asked: Try this compound too: FCCOc1cc(Cl)c(Cl)c2[nH]cc(-c3cn[nH]c3)c12
Given back: lowest

Asked: Try this compound too: CCN1CCn2c(c(-c3cn[nH]c3)c3c(NC(=O)C(F)F)cc(Cl)c(Cl)c32)C1=O
Given back: lowest

Now take the following compound into account.
Asked: Category of CN(C)C1(CC(=O)N2CCn3c(c(-c4cn[nH]c4)c4ccc(Cl)c(Cl)c43)C2)COC1 :
Given back: highest
